meta.source: PubChem BioAssay (NCI)

Reported growth inhibition by item:
- test: NCI Yeast Anticancer Drug Screen. Data for the mec2-1 strain (AID 157)
- details: S. cerevisiae mec2-1 strain, at 50.0 µM (retest, dose inferred, filed as 5.0), hits give high values
This is part of a sample that, as a whole, favours compounds with a hit. Of some 79,000 tested, about 15% had one in any assay.
Your answer should be a plain number; it is taken to be in %.

Form field growth inhibition, entry COc1ccc(/C=C/c2ccnc3ccccc23)cc1OC : 97

----------
- test: NCI Yeast Anticancer Drug Screen. Data for the rad50 strain (AID 155);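 note: 0% = growth of vehicle-only cultures of the same strain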
- details: S. cerevisiae rad50 strain growth inhibition; at 5.0 µM (retest, dose inferred, filed as 0.5)
About 79,000 compounds went through this panel and 15% of them were active in at least one assay; those are over-represented in the sample as a whole. Activity calls are given as the source filed them. No stated cut-off is given here; in the data, active means growth inhibition above about 70%; inactive means the rest.
Field 'call' accepts Y (active), N (inactive)

The examples below pair each entry with its known result.
compound	class-name
O=C(CNc1ccccc1[N+](=O)[O-])Nn1c(-c2ccccc2)nc2ccccc2c1=O	N
O=[N+]([O-])c1ccc(O)c(-c2ccccc2)c1	N
COC1=CC(=O)C(C#CCOCc2ccccc2)=CC1=O	N
O=C(c1ccccc1)c1ccc(Cl)cc1	N
C/C(=N/NC(=S)N1CCCCC1)c1cccc(/C(C)=N\NC(=S)N2CCCCC2)n1	N
COC1=CC23C=CC1[C@@H](c1ccccc1)C2=C(C)C(=O)N3C(=O)NC1CCCCC1 (stereo partly drawn)	N

IN: Query: recorded result category for Cc1c(-c2ccccc2)ccnc1/C=N/NC(=S)Nc1ccc(N(C)C)cc1 in this test
OUT: N

IN: Test call, this compound: NS(=O)(=O)c1ccc(NC(=S)/N=C/c2c(O)c3ccccc3[nH]c2=O)cc1
OUT: N

IN: Test call, this compound: CC(=O)/C=N/Nc1ccccc1
OUT: N

IN: Can you look up the reported call for CC(C)COP(=O)(OCC(C)C)C(NS(=O)(=O)c1ccccc1)(C(F)(F)F)C(F)(F)F for me?
OUT: N

IN: Which result was noted for this compound in the test: CN(C)C(=S)/N=c1\ss/c(=N\C(=S)N(C)C)n1-c1ccc(Cl)cc1
OUT: N

IN: # lookup: test call for CN1c2ccccc2Sc2c1n[nH]c2-c1ccccc1
OUT: N

IN: Hello, I am checking results. What call was entered for O=S(=O)(O)CC[S][Sn]([S]CCS(=O)(=O)O)([c]1ccccc1)[c]1ccccc1 (tested in a mixture with another compound) ?
OUT: Y

IN: # fetch the recorded call for O=C1CCCC1CN1CCOCC1 (stereo not drawn) here
OUT: N

IN: I'd appreciate the recorded outcome for Cc1ccc(Cc2n[nH]c(=O)[nH]2)cc1 from this test.
OUT: N

IN: # outcome recorded in this test, key = CC1CCC(SC2CC(=O)CCC2=O)CC1 (stereo not drawn)
OUT: N

IN: Any idea what this test logged for Oc1cc(Br)cc2cccnc12 ?
OUT: Y

IN: Write down the call the test reported for this compound. Item: COc1ccc(-c2cc(-c3ccc4c(c3)CC(C)O4)nc(N)n2)cc1 (stereo not drawn)
OUT: N

IN: Lab log entry: [Pt].c1ccc([PH+](CC[PH+](CC[PH+](c2ccccc2)c2ccccc2)CC[PH+](c2ccccc2)c2ccccc2)c2ccccc2)cc1 — outcome as called in the assay?
OUT: N

IN: GET /call?item= CC(O)c1cccnc1 (stereo not drawn) returns the recorded outcome of this test.
OUT: N

IN: For O=C1OC(=O)c2cccc3cccc1c23 , which call appears in the assay record?
OUT: N

IN: // param item: O=C(O)CCCNc1ncc2c(n1)-c1ccccc1OC2 ; yields the recorded call
OUT: N

IN: Status in this test for CCCC(CCC)NCCOC(=O)C(CC)c1ccccc1 (stereo not drawn) ?
OUT: N

----------
The following molecules are listed with their measured growth inhibition values.
- test: NCI Yeast Anticancer Drug Screen. Data for the rad50 strain (AID 155);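 note: 0% = growth of vehicle-only cultures of the same strain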
- details: S. cerevisiae rad50 strain growth inhibition; at 5.0 µM (retest, dose inferred, filed as 0.5); hits give high values
The panel holds about 79,000 compounds, 15% with a hit somewhere; the sample as a whole holds those more often.
# value in %; strip the unit string

molecule	unit-abbrev	result-value
CCC(C)(O)C#Cc1ccc(C)nc1 (configuration not stated)	%	2
Oc1cc(Br)cc2cc(Cl)cnc12	%	99

Attention now turns to another entry.
response.value for COc1ccccc1CN1CCCN(Cc2ccccc2OC)C1c1cc(Cl)cc(Cl)c1O (field: growth inhibition) = 16

----------
- test: NCI Yeast Anticancer Drug Screen. Data for the mec2-1 strain (AID 157)
- details: S. cerevisiae mec2-1 strain, at 50.0 µM
- Experimental: Growth inhibition of yeast strains with defined genetic alterations is measured as a screen for potential anti-cancer activity. Selected strains with alterations in DNA damage repair or cell cycle control were exposed to compounds and growth inhibition was measured relative to vehicle treated controls. The strain used in this assay is mec2-1
This is part of a sample that, as a whole, favours compounds with a hit. Of some 79,000 tested, about 15% had one in any assay. The source made the active and inactive calls. Cut-off read from the data, not from the text of the source: active = growth inhibition above about 70%; inactive = the rest.
Write down the outcome that applies. Available outcomes: t (active), f (inactive)

IN: Just curious, what result did C=C1C(=O)O[C@@H]2C[C@]3(C)CC[C@]4(C)[C@H](CC[C@@H]5[C@@]6(C)CCC(=O)C(C)(C)[C@@H]6CC[C@]54C)[C@H]3[C@H]12 get here?
OUT: f

IN: # lookup: test call for C/C(=N/NC(=S)N1CCCCC1)c1cccc(/C(C)=N\NC(=S)N2CCCCC2)n1
OUT: t

IN: Tell me the assay call for O=C1/C(=C/c2ccc([N+](=O)[O-])cc2)Sc2scc(-c3cccc([N+](=O)[O-])c3)[n+]21 please.
OUT: t

IN: Each compound tested received a call. Report the one for Cc1nc(Nc2ccc(Cl)cc2)sc1C(=O)NNC(=O)C(=O)NN .
OUT: f

IN: Test call for this compound, please: C1CCC(CCCCc2nn[nH]n2)CC1
OUT: t

IN: Please state the recorded outcome for this compound: O=C(CCl)N1CCN(C(c2ccccc2)c2ccccc2)CC1
OUT: t

----------
compounds and their reported growth inhibition
- test: NCI Yeast Anticancer Drug Screen. Data for the rad50 strain (AID 155);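 note: 0% = growth of vehicle-only cultures of the same strain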
- details: S. cerevisiae rad50 strain growth inhibition; at 50.0 µM (retest, dose inferred, filed as 5.0); hits give high values
Compounds without any hit were thinned out: in the full panel of roughly 79,000, 15% have a hit.
Express it in %; write the number only.

compound	observable	unit-abbrev	result-value
OC(CBr)c1cc(-c2ccccc2)nc2ccccc12 (stereo not drawn)	growth inhibition	%	98
Cc1c2cnccc2c(C)c2c1c1ccccc1n2CCCCCCNCc1ccccc1	growth inhibition	%	95
COc1ccc(/C=C\Cc2cc3c(cc2OCCO)OCO3)cc1	growth inhibition	%	92
O=[N+]([O-])c1cccn2nc(C3OC(CO)C(O)C3O)nc12 (stereo not drawn)	growth inhibition	%	13
O=C(O)C1C(=O)OC2CCCCC21 (stereo not drawn)	growth inhibition	%	-4

For this compound ( O=[N+]([O-])c1cc(Br)cc2c1nc(NCCCO)c1ccccc12 ), measured growth inhibition is 93

For this compound ( O=c1ccc2nc3ccccc3sc-2c1 ), measured growth inhibition is 98

For reference, reported growth inhibition for O=C(/C(=C\c1ccccc1)c1ccccc1)c1ccc(Br)cc1 stands at -9

Note to self: growth inhibition recorded for O=Cc1c(O)ccc2ccccc12.[Cu+2] was 95

Per the records, this compound ( Cn1cc(NC(=O)Nc2cc(C(=O)Nc3cc(C(=O)Nc4cc(S(=O)(=O)O)c5cc(S(=O)(=O)O)cc(S(=O)(=O)O)c5c4)n(C)c3)n(C)c2)cc1C(=O)Nc1cc(C(=O)Nc2cc(S(=O)(=O)O)c3cc(S(=O)(=O)O)cc(S(=O)(=O)O)c3c2)n(C)c1 ) has growth inhibition equal to 90

Just so you know, measured growth inhibition for CC(C)C1=CC23CCC4C(C)(C(=O)O)CCCC4(C)C2CC1c1c(O)ccc(O)c13 (stereo not drawn) came out at 98

For record CCCCCCCCCCCCCCCC(=O)NCC[N+](CC)(CC)Cc1ccc(C[N+](CC)(CC)CCNC(=O)CCCCCCCCCCCCCCC)cc1 the listed growth inhibition is 99

Consider CCCCN(CCCC)CC(O)c1ccc2cc(Cl)c3ccccc3c2c1 (stereo not drawn) . Its measured growth inhibition is 99

Given item COc1ccc(-c2nnc(C)nc2-c2ccc(OC)cc2)cc1 , the value recorded as its growth inhibition is -1

The compound O=[N+]([O-])c1ccc(NS(=O)(=O)c2ccc(Cl)c(Cl)c2Cl)c([N+](=O)[O-])c1 showed growth inhibition equal to 18

growth inhibition measured on CC/C(=C\c1cccc(OC)c1)c1ccncc1 = 84

----------
- test: NCI Yeast Anticancer Drug Screen. Data for the sgs1 mgt1 strain (AID 161);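 note: 0% = growth of cultures given vehicle only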
- details: S. cerevisiae sgs1 mgt1 strain, at 50.0 µM (retest, dose inferred, filed as 5.0)
Compounds without any hit were thinned out: in the full panel of roughly 79,000, 15% have a hit. The source made the active and inactive calls. No stated cut-off is given here; in the data, active means growth inhibition above about 70%; inactive means the rest.
Your reply should match one of these outcome classes. active, inactive

Recorded results for 5 compounds are shown here.
compound	class-name
c1ccc(C2=NCCC(c3ccccc3)S2)cc1 (stereo not drawn)	inactive
O=C1C=C/C(=C(/c2ccc(O)c(O)c2)c2ccccc2S(=O)(=O)O)C=C1O	inactive
C(=C\[n+]1ccc2ccccc2c1)/c1ccccc1	inactive
C=C(Br)COc1ccc2c(C)cc(=O)oc2c1	inactive
COc1ccc(N=Cc2ccccc2O)cc1	inactive

IN: // outcome(item) with item = Cc1cc(C)c(Cc2ccccc2O)cc1Cc1ccccc1O
OUT: active

IN: What did the test return for Cc1ccc2ccc3c(CCN(C)C)cc4c(c3c2c1O)OCO4 ?
OUT: active

IN: Recorded test call requested for Cc1cccc(NC(=S)N/N=C(/c2ccccc2)c2ccccn2)c1
OUT: active

IN: Test call, this compound: O=P(Nc1ccccc1)(OCc1ccccc1)OCc1ccccc1
OUT: active
